# subject-of-test: U2B″ (human, UniProt P08579 1-225)
# Sequence (P08579 whole entry): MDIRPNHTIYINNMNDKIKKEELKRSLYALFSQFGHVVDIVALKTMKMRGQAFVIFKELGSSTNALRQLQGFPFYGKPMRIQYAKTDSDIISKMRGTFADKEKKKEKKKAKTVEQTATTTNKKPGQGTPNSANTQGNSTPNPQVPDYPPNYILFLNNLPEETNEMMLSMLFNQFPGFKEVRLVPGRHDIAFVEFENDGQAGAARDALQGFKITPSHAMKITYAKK
# measurement-description: fluorescence titration
observable: pKd
Just so you know, pKd here is -log10 of the concentration in molar units; reply with that number alone.

State the recorded pKd for this entry: GGGCCCGGCAUUGCACCUCGCCGGGUCC (structured_RNA) [FAM-SLII (U1 snRNA stemloop II)]
7.82

# lookup: pKd of GGGCCCGGUAUUGCAGUACCGCCGGGUCC (structured_RNA) [FAM-SLIV (U2 snRNA stemloop IV)]
7.77

Recorded values, source paper PMC4067145.
